- measurement_protocol: qHTS for Inhibitors of Plasmodium falciparum (GB4) proliferation (AID 504315); also: nearly all actives have a fitted effect of over 50% in size
- conditions_used: P. falciparum GB4 in erythrocytes, SYBR Green DNA, 72 h; series mostly up to 6.7 µM
Results filed as inconclusive are left out. Active and inactive are the calls of the source. Calls follow the shape of the dose curve; as a rule, active = well fitted inhibition curve with a large enough effect; inconclusive = small, poorly fitted or top-dose-only effect, or effect the other way; inactive = flat fitted curve, though single readings scatter.
Possible outcomes: YES for active, NO for inactive

compound	class
COCCN1C(=S)NC(c2cccc(F)c2)C(C(=O)OC)=C1C (centres undefined)	NO
COc1cc2c(cc1OC)[C@@H]1O[C@](CCCCN3C(=O)c4ccccc4C3=O)(C2)OC2=C1C(=O)CC(C)(C)C2	YES
COC(=O)C1=C(C(=O)OC)[C@@H]2N(CC=C(C)C)c3ccccc3[C@@]23CCC(=O)N(Cc2cccc(C(F)(F)F)c2)C3=N1	YES
C=CC[C@@H]1C=C[C@H](ON=C(C)CCN2CCCCc3nc(C)c(C)cc32)[C@H](CO)O1	NO
C[C@@H]1CC[C@H]2C(=O)N(Cc3ccccc3)C[C@H](O)CN2[C@@H]1c1ccc(Br)cc1	YES
COC1=CC2C(=O)C(C1=O)[C@H](c1ccccc1)[C@H]2C (some centres undefined)	NO
C=CCOC(=O)N[C@H](c1cccc(C(F)(F)F)c1)C(C(C)=O)C(C)=O	NO
C=C(C(=O)C(C)(C)O)C(O)c1ccc([N+](=O)[O-])cc1 (centres undefined)	NO
CC(C)=CCN1C(=O)C2(CC(C)=C[C@@H](C)O2)c2c(Br)cccc21 (some centres undefined)	NO
COC(=O)CC=C[C@@H](C)[C@@H](C=NOC[C@@H](O)[C@H]1O[C@@H]2OC(C)(C)O[C@H]2[C@@H]1O)OC	NO
C=C(C)C(=O)OC[C@@H]1CN2[C@H](c3ccc(Br)cc3)[C@H](C)CC[C@H]2C(=O)O1	NO
Cc1ccccc1Nc1oc(-c2ccccc2)nc1-c1ccccc1	YES
C=CCN1C(=O)[C@@]2(CC(C)=C[C@@H](COc3ccccc3)O2)c2ccccc21	NO
CCCCCCCc1cc2ccccc2c2c(C(=O)OC)c(C(=O)OC)c(C(=O)OC)n12	NO
CCN1C(=O)N[C@@H](c2cccc(C(F)(F)F)c2)[C@H](C(C)=O)[C@H]1C	NO
C=CC[C@@H]1C=C[C@H](ON=C(C)CCN2CCCc3nc(C)c(C)cc32)[C@H](CO)O1	YES
CC(C)C(=O)N[C@H]1CCCN1C(=O)C=Cc1ccccc1	NO
Cc1ccc(S(=O)(=O)OCCc2ccccc2)cc1	NO
COC(=O)C1=C(C(=O)OC)[C@@H]2N(C)c3ccc(OC)cc3[C@@]23C[C@@H](C(=O)OC)N(C(=O)N2CCNC2=O)C3=N1	NO

* * *

- Tested on: CP291
- measurement_protocol: qHTS profiling for inhibitors of Plasmodium falciparum proliferation (AID 504749); also: nearly all actives have a fitted effect of over 60% in size
- conditions_used: P. falciparum in erythrocytes, SYBR Green DNA, 72 h; series mostly up to 28.7 µM
Records with an inconclusive call do not appear. Calls of active or inactive are those of the source. Calls come from the whole dose curve; as a rule, active = well fitted inhibition curve with a large enough effect; inconclusive = small, poorly fitted or top-dose-only effect; inactive = flat fitted curve, though single readings scatter.
Possible outcomes: 1 (yes) (active), 0 (no) (inactive)

compound	class
CC(C)(O)c1ccccc1CC[C@H](SCC1(CC(=O)O)CC1)c1cccc(/C=C/c2ccc3ccc(Cl)cc3n2)c1	0 (no)
CC(=O)[C@H]1CC[C@H]2C3CC=C4C[C@@H](O)CC[C@]4(C)C3CC[C@]12C (some centres undefined)	0 (no)
C[C@@H](C(=O)O)c1ccc(-c2ccccc2)c(F)c1	0 (no)
CC(C)C[C@@H](NC(=O)[C@H](Cc1ccccc1)NC(=O)c1cnccn1)B(O)O	1 (yes)
